# SYSTEM_UNDER_TEST: Peptide 1: Biotin-…-[Tyr(PC)]-acid
# Sequence (peptide, as listed by the source): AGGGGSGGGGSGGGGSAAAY
# MEASUREMENT_NOTES: scFv ELISA
READOUT_NAME: OD450 (OD450)
Please reply with the bare figure in OD450 and do not write the unit itself.

A selection of reference data follows.
* PcOxP_DB03_B02 (scFv, V domains shown, scFv in periplasmic extract) VH: EVQLLESGGGLVQPGGSLRLSCAASGFAFSDFYMEWVRQAPGKGLEWVAASRNKANDYTTEYADSVKGRFTISRDNSKNTLYLQMNSLRAEDTAVYYCARDYYGSSYWYFDVWGQGTLVTVSS VL: DIQMTQSPSSLSASVGDRVTITCTASESLYSSKHKVHYLAWYQQKPGKAPKLLIYGASNRYDGVPSRFSGSGSGTDFTLTISSLQPEDFATYYCAQFYEYPLTFGGGTKVEIK | 2.02
* PcOxP_DB01_E11 (scFv, V domains shown, scFv in periplasmic extract) VH: EVQLLESGGGLVQPGGSLRLSCAASGFTFSDFYMEWVRQAPGKGLEWVAASRNKANDYVTEYADSVKGRFTISRDNSKNTLYLQMNSLRAEDTAVYYCARDYYGSSYWYFDVWGQGTLVTVSS VL: DIQMTQSPSSLSASVGDRVTITCTASFSLYSSKHKVHYLAWYQQKPGKAPKLLIYGASNRYPGVPSRFSGSGSGTDFTLTISSLQPEDFATYYCAQFYYYPLTFGGGTKVEIK | 0.62
* PcOxP_DB03_C01 (scFv, V domains shown, scFv in periplasmic extract) VH: EVQLLESGGGLVQPGGSLRLSCAASGFTFSDFYMEWVRQAPGKGLEWVAASRNKANDYTTEVADSVKGRFTISRDNSKNTLYLQMNSLRAEDTAVYYCARDYYGSSNWYFDVWGQGTLVTVSS VL: DIVMTQSPDSLAVSLGERATINCTASESLYSSKIKVHYLAWYQQKPGQPPKLLIYGAHNRYIGVPDRFSGSGSGTDFTLTISSLQAEDVAVYYCAQFYSYPLTFGGGTKVEIK | 0.84

Task item: So what's the measured OD450 for this one? PcOxP_DB01_A05 (scFv, V domains shown, scFv in periplasmic extract) VH: EVQLLESGGGLVQPGGSLRLSCAASGFTFSDYYMEWVRQAPGKGLEWVAASRNKANDYTTEYADSVKGRFTISRDNSKNTLYLQMNSLRAEDTAVYYCARDYYGNSYWYFDVWGQGTLVTVSS VL: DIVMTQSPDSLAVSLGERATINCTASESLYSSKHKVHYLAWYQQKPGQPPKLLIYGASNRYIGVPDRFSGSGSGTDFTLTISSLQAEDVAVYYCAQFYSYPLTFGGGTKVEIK
Reply: 0.83

Task item: Then this binder: PcOxP_DB02_H09 (scFv, V domains shown, scFv in periplasmic extract) VH: EVQLLESGGGLVQPGGSLRLSCAASGFTFSSYYMEWVRQAPGKGLEWVAASRNKANDYTYEYADSVKGRFTISRDNSKNTLYLQMNSLRAEDTAVYYCARDYYESSYWYFDVWGQGTLVTVSS VL: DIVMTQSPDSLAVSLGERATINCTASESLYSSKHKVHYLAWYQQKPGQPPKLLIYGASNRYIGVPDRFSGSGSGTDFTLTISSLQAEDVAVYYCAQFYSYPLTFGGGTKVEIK
Reply: 0.25
